System: IL-17A-induced G-CSF production in human normal keratinocyte (NHK)
Method description: NHK Assay: IL-17A-induced G-CSF production in human normal keratinocytes
Assay type: cell-based
Measurement parameters: adult normal human keratinocytes, IL-17A 5 ng/mL, 24 h, simple average if tested more than once
Readings of IC50 for the listed compounds
A number alone suffices; assume nM.

See these solved cases before continuing.
O=C(CC1CC(F)(F)C1)NC(c1cnn2cc([C@@H](NC(=O)c3cnn(CCC(F)(F)F)c3)C3CCC(F)(F)CC3)nc2c1)C1CC1 (single isomer, unassigned) [Example 8]	360
CC(C)n1nccc1C(=O)N[C@H](c1cn2ncc(C(NC(=O)CCC(F)(F)F)C3CC3)cc2n1)C1CCC(F)(F)CC1 (single isomer, unassigned) [Example 14]	50
CC(C)n1nccc1C(=O)N[C@H](c1cn2ncc(C(NC(=O)CC3CC(F)(F)C3)C3(C#N)CC3)cc2n1)C1CCC(F)(F)CC1 (single isomer, unassigned) [Example 426]	100

Incoming: Find the recorded IC50 belonging to Cc1nonc1C(=O)N[C@H](c1cn2ncc(C(CC#N)NC(=O)CC3CC(F)(F)C3)cc2n1)C1CCC(F)(F)CC1 (single isomer, unassigned) [Example 397] and report it.
Outgoing: 600

Incoming: Find the recorded IC50 belonging to Cc1nonc1C(=O)N[C@H](c1cn2ncc([C@H](NC(=O)C(F)C3CCC3)C3CC3)cc2n1)C1CCC(F)(F)CC1 (single isomer, unassigned) [Example 348] and report it.
Outgoing: 220

Incoming: Find the recorded IC50 belonging to COCC(NC(=O)CC1CC(F)(F)C1)c1cnn2cc([C@@H](NC(=O)c3nonc3C3CC3)C3CCC(F)(F)CC3)nc2c1 (single isomer, unassigned) [Example 524] and report it.
Outgoing: 3700

Incoming: Find the recorded IC50 belonging to Cc1nonc1C(=O)N[C@H](c1cn2ncc([C@H](NC(=O)C(C)CC(F)(F)F)C3CC3)cc2n1)C1CCC(F)(F)CC1 (single isomer, unassigned) [Example 347] and report it.
Outgoing: 1600

Incoming: Find the recorded IC50 belonging to CC(C)n1nccc1C(=O)N[C@H](c1cn2ncc(C(CO)NC(=O)CC3CC(F)(F)C3)cc2n1)C1CCC(F)(F)CC1 (single isomer, unassigned) [Example 532] and report it.
Outgoing: 2800

Incoming: Find the recorded IC50 belonging to [2H]C([2H])([2H])C([2H])([2H])n1nccc1C(=O)N[C@H](c1cn2ncc(C(NC(=O)CC3CC(F)(F)C3)C3CCC3)cc2n1)C1CCC(F)(F)CC1 (single isomer, unassigned) [Example 496] and report it.
Outgoing: 10000

Incoming: Find the recorded IC50 belonging to CC(C)C(NC(=O)CCC(F)(F)F)c1cnn2cc([C@@H](NC(=O)c3ccnn3C(C)C)C3CCC(F)(F)CC3)nc2c1 (single isomer, unassigned) [Example 154] and report it.
Outgoing: 640

----------
Tested on: IL-17A-induced G-CSF production in human normal keratinocyte (NHK)
Method description: NHK Assay: IL-17A-induced G-CSF production in human normal keratinocytes
Format: cell-based
Measurement parameters: adult normal human keratinocytes, IL-17A 5 ng/mL, 24 h, simple average if tested more than once
Readout kind: pIC50
pIC50 here: minus log base 10 of the concentration, concentration in moles per litre.

See these solved cases before continuing.
CC(C)n1nccc1C(=O)N[C@H](c1cn2ncc([C@H](NC(=O)CCC3CC3(F)F)C3CC3)cc2n1)C1CCC(F)(F)CC1 (single isomer, unassigned)	7.17
Cc1nonc1C(=O)N[C@H](c1cn2ncc(C(NC(=O)CC3CC(F)(F)C3)C(C)(C)O)cc2n1)C1CCC(F)(F)CC1 (single isomer, unassigned) [Example 443]	6.28
Cc1nonc1C(=O)N[C@H](c1cn2ncc([C@H](NC(=O)CC(C)C(F)F)C3CC3)cc2n1)C1CCC(F)(F)CC1 (single isomer, unassigned) [Example 264]	6.46

Incoming: Find the recorded pIC50 belonging to CC(C)C(NC(=O)CCC(F)(F)F)c1cnn2cc([C@@H](NC(=O)c3ccnn3C(C)C)C3CCC(F)(F)CC3)nc2c1 (single isomer, unassigned) [Example 155] and report it.
Outgoing: 7.28

----------
Readings of IC50 for the listed compounds
Tgt: IL-17A(FLAG-Tagged): IL-17RA(His-Tagged) (Homo sapiens, UniProt Q16552, K93Q)
Sequence (Q16552 with tags, fused parts or gaps K93Q): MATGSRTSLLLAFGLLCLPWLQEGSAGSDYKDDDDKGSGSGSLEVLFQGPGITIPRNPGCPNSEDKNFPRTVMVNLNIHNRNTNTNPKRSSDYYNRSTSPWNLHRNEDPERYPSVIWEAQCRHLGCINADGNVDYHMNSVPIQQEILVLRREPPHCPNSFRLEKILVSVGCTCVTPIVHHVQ
Method description: IL-17A(FLAG-Tagged): IL-17RA(His-Tagged) Binding Disruption Eu-HTRF Assay
Measurement parameters: IL-17A/IL-17RA binding disruption, simple average if tested more than once
A number alone suffices; assume nM.

Incoming: Find the recorded IC50 belonging to "N#Cc1ccccc1C(=O)N[C@H](c1cn2ncc([C@H](NC(=O)CCC(F)(F)F)C3CC3)cc2n1)C1CCC(F)(F)CC1" and report it.
Outgoing: 5300

----------
Tgt: IL-17A(FLAG-Tagged): IL-17RA(His-Tagged) (Homo sapiens, UniProt Q16552, K93Q)
Method description: IL-17A(FLAG-Tagged): IL-17RA(His-Tagged) Binding Disruption Eu-HTRF Assay
Measurement parameters: IL-17A/IL-17RA binding disruption, simple average if tested more than once
Readout kind: IC50 (nM)
A number alone suffices; assume nM.

See these solved cases before continuing.
O=C(CCC(F)(F)F)N[C@@H](c1cnn2cc([C@@H](NC(=O)c3conc3OCC(F)F)C3CCC(F)(F)CC3)nc2c1)C1CC1 [Example 285]	120
CC(C)n1nccc1C(=O)N[C@H](c1cn2ncc([C@H](NC(=O)CC3CC(F)(F)C3)C3CC3)cc2n1)C1CCC(F)(F)CC1 [Example 119]	96

Incoming: Find the recorded IC50 belonging to O=C(CC1CC(F)(F)C1)N[C@@H](c1cnn2cc([C@@H](NC(=O)c3nonc3CN3CC(F)C3)C3CCC(F)(F)CC3)nc2c1)C1CC1 [Example 407] and report it.
Outgoing: 240

Incoming: Find the recorded IC50 belonging to CC(C)n1nccc1C(=O)N[C@H](c1cn2ncc(C(NC(=O)CC3CC(F)(F)C3)C(F)F)cc2n1)C1CCC(F)(F)CC1 (single isomer, unassigned) [Example 519] and report it.
Outgoing: 190

Incoming: Find the recorded IC50 belonging to O=C(CCC(F)(F)F)N[C@@H](c1cnn2cc([C@@H](NC(=O)c3cc(C(F)F)ncn3)C3CCC(F)(F)CC3)nc2c1)C1CC1 [Example 199] and report it.
Outgoing: 230

Incoming: Find the recorded IC50 belonging to CC(CC(=O)N[C@@H](c1cnn2cc([C@@H](NC(=O)c3nonc3C3CC3)C3CCC(F)(F)CC3)nc2c1)C1CC1)C(F)(F)F (single isomer, unassigned) [Example 301] and report it.
Outgoing: 53

----------
Tgt: IL-17A(FLAG-Tagged): IL-17RA(His-Tagged) (Homo sapiens, UniProt Q16552, K93Q)
Method description: IL-17A(FLAG-Tagged): IL-17RA(His-Tagged) Binding Disruption Eu-HTRF Assay
Measurement parameters: IL-17A/IL-17RA binding disruption, simple average if tested more than once
pIC50: −log10 of the molar value.
Classify by measured pIC50: 1.0 if it is equal to or exceeds 7, 0.0 if it is smaller.

O=C(CCC(F)(F)F)N[C@@H](c1cnn2cc([C@@H](NC(=O)c3conc3CCF)C3CCC(F)(F)CC3)nc2c1)C1CC1	1.0
Cn1nnc(C(=O)N[C@H](c2cn3ncc([C@H](NC(=O)CCC(F)(F)F)C4CC4)cc3n2)C2CCC(F)(F)CC2)c1C(F)F	0.0
O=C(CCC(F)(F)F)N[C@@H](c1cnn2cc([C@@H](NC(=O)c3conc3CCC(F)(F)F)C3CCC(F)(F)CC3)nc2c1)C1CC1	1.0

Incoming: hey, is pIC50 for this one >= 7? "COCCn1ncc(C(=O)N[C@H](c2cn3ncc([C@H](NC(=O)CCC(F)(F)F)C4CC4)cc3n2)C2CCC(F)(F)CC2)n1"
Outgoing: 0.0

Incoming: hey, is pIC50 for this one >= 7? "O=C(CCC(F)(F)F)N[C@@H](c1cnn2cc([C@@H](NC(=O)c3cccc(OCC(F)F)n3)C3CCC(F)(F)CC3)nc2c1)C1CC1"
Outgoing: 0.0

Incoming: hey, is pIC50 for this one >= 7? CC(C)c1nonc1C(=O)N[C@H](c1cn2ncc(C(NC(=O)CCC(F)(F)F)C(C)C)cc2n1)C1CCC(F)(F)CC1 (single isomer, unassigned)
Outgoing: 1.0

Incoming: hey, is pIC50 for this one >= 7? Cn1nccc1C(=O)N[C@H](c1cn2ncc(C(NC(=O)CCC(F)(F)F)C3CC3)cc2n1)C1CCC(F)(F)CC1 (single isomer, unassigned)
Outgoing: 1.0

Incoming: hey, is pIC50 for this one >= 7? "COc1nocc1C(=O)N[C@H](c1cn2ncc([C@H](NC(=O)CCC(F)(F)F)C3CC3)cc2n1)C1CCC(F)(F)CC1"
Outgoing: 0.0

Incoming: hey, is pIC50 for this one >= 7? Cc1nonc1C(=O)N[C@H](c1cn2ncc([C@H](NC(=O)C(C)CC(F)F)C3CC3)cc2n1)C1CCC(F)(F)CC1 (single isomer, unassigned) [Example 329]
Outgoing: 0.0

Incoming: hey, is pIC50 for this one >= 7? CC[C@H](NC(=O)CC1CC(F)(F)C1)c1cnn2cc([C@@H](NC(=O)c3nonc3C3CC3)C3CCC(F)(F)CC3)nc2c1 (relative stereo)
Outgoing: 0.0

Incoming: hey, is pIC50 for this one >= 7? "O=C(CCC(F)(F)F)N[C@@H](c1cnn2cc([C@@H](NC(=O)c3ccnc(C4CC4)n3)C3CCC(F)(F)CC3)nc2c1)C1CC1"
Outgoing: 0.0

Incoming: hey, is pIC50 for this one >= 7? Cc1nonc1C(=O)N[C@H](c1cn2ncc([C@H](NC(=O)CC3CC3(F)F)C3CC3)cc2n1)C1CCC(F)(F)CC1 (relative stereo)
Outgoing: 1.0
